Recorded measurements of IC50, one per entry
# Test system: MCF7
# testDetails: Cytotoxicity against human MCF7 cells after 48 hrs by sulforhodamine B assay
# Type: functional, cell-based
# experimentalConditions: MCF7, 48 h
Provide only the numeric value, understood in nM.

Example entries and their recorded answers appear below.
compound	readoutUnit	IC50
CCCC[C@H](/C=C\[C@@H]1OC(=O)C=C[C@@H]1OC(C)=O)OC(C)=O	nM	500
CC[C@]1(O)C[C@@H]2CN(CCc3c([nH]c4ccccc34)[C@@](C(=O)OC)(c3cc4c(cc3OC)N(C)[C@H]3[C@@](O)(C(=O)OC)[C@H](OC(C)=O)[C@]5(CC)C=CCN6CC[C@]43[C@@H]65)C2)C1	nM	12
C/C=C/C[C@H](C)[C@@H](OC)[C@@H](C)[C@H](O)C[C@H]1OC(=O)C=C[C@H]1CC	nM	15
CCCC[C@@H](/C=C\[C@@H]1OC(=O)C=C[C@@H]1OC(C)=O)OC(C)=O [PECTINOLIDE A]	nM	3200
CCCC[C@H](OC(C)=O)[C@@H](OC(C)=O)[C@H](OC(C)=O)[C@@H]1OC(=O)C=C[C@@H]1OC(C)=O	nM	7700

Could you now consider this next compound?
In: Requested field: IC50. Item: CCCC[C@@H](/C=C\[C@@H]1OC(=O)C=C[C@@H]1O)OC(C)=O [PECTINOLIDE C]
Out: 1000

====

# Test system: MCF7
# testDetails: Cytotoxicity against human MCF7 cells after 48 hrs by sulforhodamine B assay
# Format: functional, cell-based
# experimentalConditions: MCF7, 48 h
propertyLabel: IC50 (µM)
Provide only the numeric value, understood in µM.

Example entries and their recorded answers appear below.
molecule	IC50 / µM
CCCC[C@H](OC(C)=O)[C@@H](O)[C@H](O)[C@@H]1OC(=O)C=C[C@@H]1OC(C)=O	9.8
CCCC[C@H](O)/C=C\[C@@H]1OC(=O)C=C[C@@H]1OC(C)=O [PECTINOLIDE B]	9.3
CCCC[C@H](/C=C\[C@@H]1OC(=O)C=C[C@@H]1O)OC(C)=O	1.3

Could you now consider this next molecule?
In: Requested field: IC50. Item: "CCCC[C@H](O)/C=C\[C@@H]1OC(=O)C=C[C@@H]1O"
Out: 5.9
